- target desc: LPA/S1P GPCR of interest (Homo sapiens, UniProt Q92633)
- Sequence (Q92633 whole entry): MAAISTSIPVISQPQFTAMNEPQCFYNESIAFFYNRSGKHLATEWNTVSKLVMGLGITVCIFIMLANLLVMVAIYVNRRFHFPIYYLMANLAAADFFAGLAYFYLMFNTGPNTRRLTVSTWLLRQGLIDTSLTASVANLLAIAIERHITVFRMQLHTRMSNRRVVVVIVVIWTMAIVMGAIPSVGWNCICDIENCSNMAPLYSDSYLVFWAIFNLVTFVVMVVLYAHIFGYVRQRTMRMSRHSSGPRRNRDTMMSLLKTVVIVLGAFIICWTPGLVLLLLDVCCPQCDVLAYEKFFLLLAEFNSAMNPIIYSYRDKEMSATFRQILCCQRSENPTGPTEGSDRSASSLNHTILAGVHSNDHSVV
- test method notes: Beta-Arrestin based assay (PathHunter)
- Method: CMV promoter based DNA constructs expressing a fusion of the LPA/S1P GPCR of interest and ProLink™ tag were used to transfect EA Parental™ CHO cells (DiscoverX, Fremont, Calif.) using a FuGENE® transfection kit (Roche). Beta-Arrestin based assays were conducted 24-48 hrs post transfection using PathHunter® assay kits (DiscoverX, Fremont, Calif.). […] End point luminescence data were plotted and fit to a 4 parameter logistic function to obtain IC50 values. […]
pEC50: −log10 of the molar value.
readout name: pEC50

C[C@@H](OC(=O)Nc1c(-c2cc3sc(-c4ccc(C5(C(=O)O)CC5)c(S(C)(=O)=O)c4)cc3s2)cnn1C)c1ccccc1 | < 6.30

Answer for every listed entry: what is its pEC50? The entries follow.
1. Cc1nsc(-c2cc3sc(-c4ccc(C5(C(=O)O)CC5)cc4OC(F)(F)F)cc3s2)c1NC(=O)O[C@H](C)c1ccccc1
2. Cc1noc(-c2ccc(-c3ccc(Oc4cccc(F)c4C(=O)O)cc3)cc2)c1NC(=O)O[C@H](C)c1ccccc1

6.30 to 7.30
> 7.30

Answer for every listed entry: what is its pEC50? The entries follow.
1. Cc1nsc(-c2cc3sc(-c4ccc5c(C6(C(=O)O)CC6)coc5c4)cc3s2)c1NC(=O)O[C@H](C)c1ccccc1
2. C[C@@H](OC(=O)Nc1c(-c2cc(F)c(-c3ccc(C4(C(=O)O)CC4)cc3)cc2F)oc2ncccc12)c1ccccc1
3. C[C@@H](OC(=O)Nc1c(-c2ccc(C#CC(=O)N(C)CCC(=O)O)cc2)cnn1C)c1ccccc1
4. COc1cc(C2(C(=O)O)CC2)c(OC)cc1-c1cc2sc(-c3cnn(C)c3NC(=O)O[C@H](C)c3ccccc3)cc2s1

< 6.30
> 7.30
< 6.30
< 6.30

src = patent US20140213538A1
